test.summary: Biodistribution of 177Lu-labeled αMSH analogues in mice bearing B16F10 mouse melanoma
Assay type: in vivo, C57BL/6J mice
condition.info: mouse, brain, iv, total radioactivity; 24 h p.i., C57BL/6J mice, B16F10 melanoma; read-out: Biodistribution, Brain
Would you mind telling me the reported tissue uptake at 24 h of each entry?

Observe how each entry below is paired with its result.
molecule: CCCC[C@H](NC(=O)CN1CCC(NC(=O)[C@H](CCCCNC(=O)CN2CCN(CC(=O)O)CCN(CC(=O)O)CCN(CC(=O)O)CC2)NC(=O)[C@H](CCC(=O)O)NC(=O)CCCc2ccc(I)cc2)CC1)C(=O)N[C@H]1CC(=O)NCCCC[C@@H](C(N)=O)N(C)C(=O)[C@H](Cc2c[nH]c3ccccc23)NC(=O)[C@H](CCCNC(=N)N)N(C)C(=O)[C@@H](Cc2ccccc2)NC(=O)[C@H](Cc2c[nH]cn2)NC1=O [^177Lu-labeled CCZ01118, metal not drawn]
tissue uptake at 24 h: 0.01 %ID/g
//
molecule: CCCC[C@H](NC(=O)CN1CCC(NC(=O)CN2CCN(CC(=O)O)CCN(CC(=O)O)CCN(CC(=O)O)CC2)CC1)C(=O)N[C@H]1CC(=O)NCCCC[C@@H](C(N)=O)N(C)C(=O)[C@H](Cc2c[nH]c3ccccc23)NC(=O)[C@H](CCCNC(=N)N)N(C)C(=O)[C@@H](Cc2ccccc2)NC(=O)[C@H](Cc2c[nH]cn2)NC1=O [^177Lu-labeled CCZ01106, metal not drawn]
tissue uptake at 24 h: 0.01 %ID/g
//
molecule: CCCC[C@H](NC(=O)CN1CCC(NC(=O)[C@H](CCCCNC(=O)CN2CCN(CC(=O)O)CCN(CC(=O)O)CCN(CC(=O)O)CC2)NC(=O)[C@H](CCC(=O)O)NC(=O)CCCc2ccc(I)cc2)CC1)C(=O)N[C@H]1CC(=O)NCCCC[C@@H](C(N)=O)NC(=O)[C@H](Cc2c[nH]c3ccccc23)NC(=O)[C@H](CCCNC(=N)N)NC(=O)[C@@H](Cc2ccccc2)NC(=O)[C@H](Cc2c[nH]cn2)NC1=O [^177Lu-labeled CCZ01082, metal not drawn]
tissue uptake at 24 h: 0.01 %ID/g

Attention now shifts to the item below.
Qu. Report tissue uptake at 24 h for CCCC[C@H](NC(=O)CN1CCC(NC(=O)[C@H](CCCCNC(=O)CN2CCN(CC(=O)O)CCN(CC(=O)O)CCN(CC(=O)O)CC2)NC(=O)[C@H](CCC(=O)O)NC(=O)CCCc2ccc(I)cc2)CC1)C(=O)N[C@H]1CC(=O)NCCCC[C@@H](C(N)=O)N(C)C(=O)[C@H](Cc2c[nH]c3ccccc23)N(C)C(=O)[C@H](CCCNC(=N)N)N(C)C(=O)[C@@H](Cc2ccccc2)NC(=O)[C@H](Cc2c[nH]cn2)N(C)C1=O [^177Lu-labeled CCZ01088, metal not drawn] please.
Ans. 0.02 %ID/g

----------
test.summary: Biodistribution of 68Ga-labeled peptide in mice bearing B16F10 mouse melanoma
Assay type: in vivo, C57BL/6J mice
condition.info: C57BL/6J, adrenal glands, iv, with BMS 470539 (MC1R-specific inhibitor), 0.5 mg co-injected, total radioactivity, 1 h p.i. blocked, co-injection of 0.5 mg BMS 470539, read-out: Biodistribution, Adrenal glands
quantity.name: tissue uptake at 1 h (%ID/g)
Answers are plain numbers, in %ID/g.

Qu. What value of tissue uptake at 1 h has been recorded for this entry: CCCC[C@H](NC(=O)CN1CCC(NC(=O)CN2CCN(CC(=O)O)CCN(CC(=O)O)CCN(CC(=O)O)CC2)CC1)C(=O)N[C@H]1CC(=O)NCCCC[C@@H](C(N)=O)N(C)C(=O)[C@H](Cc2c[nH]c3ccccc23)N(C)C(=O)[C@H](CCCNC(=N)N)N(C)C(=O)[C@@H](Cc2ccccc2)NC(=O)[C@H](Cc2c[nH]cn2)N(C)C1=O [^68Ga-labeled CCZ01099, metal not drawn]
Ans. 0.45
